# Tested on: SNB-75 CNS
# testSummary: NCI-60 one-dose screen, 48 h
# conditionInfo: 10 µM unless noted
Compounds without any hit were thinned out: in the full panel of roughly 83,000, 20% have a hit. Calls of active or inactive are those of the source. The calls were made as follows: active = growth percent below 10; inactive = the rest.
// classify into active, inactive

# fetch the recorded call for NC(=O)c1ccc(-c2ccc3ncnc(N4CCc5cc(F)c(Cl)cc54)c3c2)cn1 here
inactive

# fetch the recorded call for CCOC(=O)c1ccc(NC(=S)NC(=O)c2ccc(NC(=O)C(C)C)cc2OC)cc1 here
inactive

# fetch the recorded call for N#CC1=C(c2cccs2)Nc2c(c(-c3ccccc3)nn2-c2ccccc2)C12C(=O)Nc1ccccc12 (centres undefined) here
inactive

# fetch the recorded call for COc1ccc(N=Nc2c(N)nn3c(-c4ccc5c(c4)C=S=C5)ccnc23)cc1 here
inactive

# fetch the recorded call for CCc1ccccc1-c1nc(CN[C@@H]2C[C@@H]3C[C@H]([C@H]2C)C3(C)C)c(C)o1 here
active

# fetch the recorded call for O=C(Nc1ccc(Cl)c(C(F)(F)F)c1)N1CCN(c2cc(-c3cn(-c4ccccc4)nc3-c3cccc(O)c3)ccn2)CC1 here
active

# fetch the recorded call for CN(C)c1nc(NCCNS(=O)(=O)c2ccc(C(=O)/C=C/c3ccc(F)cc3)cc2)nc(N2CCOCC2)n1 here
inactive

# fetch the recorded call for Cn1cc(-c2cc3nc(-c4cn(C)c5ncccc45)cc(N)n3n2)c2cc(F)ccc21 here
inactive

# fetch the recorded call for COc1ccc(NC(=O)Cn2c(/C=C/c3cccc(Br)c3)nc3ccccc3c2=O)cc1 here
active

* * *

# System: EKVX NSCLC
# testSummary: NCI-60 one-dose screen, 48 h (100 = growth as untreated, 0 = no growth, -100 = all killed)
# conditionInfo: 1 µM
About 83,000 compounds went through this panel and 20% of them were active in at least one assay; those are over-represented in the sample as a whole.
assayReadout: growth (%)
Express the result in % but write the number alone.

Give the measured growth for CC/C(=C(/c1ccc(O)cc1)c1ccc(OCCN(C)C(=O)CCOCCNC(=O)Cc2ccc3c(c2)CN([C@@H]2CCC(=O)NC2=O)C3=O)cc1)c1ccccc1
102

Give the measured growth for CC/C(=C(\c1ccc(O)cc1)c1ccc(OCCN(C)C(=O)COCCNC(=O)Cc2ccc3c(c2)CN([C@@H]2CCC(=O)NC2=O)C3=O)cc1)c1ccccc1
103

Give the measured growth for CC/C(=C(\c1ccc(O)cc1)c1ccc(OCCNC)cc1)c1ccccc1
98.9

Give the measured growth for CC/C(=C(/c1ccc(O)cc1)c1ccc(OCCN(C)C(=O)COCCOCCNC(=O)Cc2ccc3c(c2)CN([C@@H]2CCC(=O)NC2=O)C3=O)cc1)c1ccccc1
99.4

* * *

# Test system: IGROV1 ovarian
# testSummary: NCI-60 one-dose screen, 48 h
# conditionInfo: 10 µM unless noted
Compounds without any hit were thinned out: in the full panel of roughly 83,000, 20% have a hit. Calls of active or inactive are those of the source. Rule for the calls: active = growth percent below 10; inactive = the rest.
// classify into active, inactive

# fetch the recorded call for NC(=Nc1ccc(OCCCCCCCCn2cnnn2)cc1)c1ccccc1 here
inactive

# fetch the recorded call for COc1ccc2c(c1)C(Sc1ccc(Br)cc1)c1c(nc(N)c(C#N)c1N)O2 (centres undefined) here
inactive

# fetch the recorded call for Cc1cc(C)c2[nH]c(=O)c(C(c3nnnn3Cc3ccc4c(c3)OCO4)N3CCN(C)CC3)cc2c1 (centres undefined) here
inactive

# fetch the recorded call for COc1cc(CNC(=O)C[C@H](C)CCC=C(C)C)ccc1OCc1cn(-c2ccc(Cl)c(Cl)c2)nn1 here
inactive

# fetch the recorded call for Fc1ccccc1CNc1nc(SCCN2CCOCC2)nc2c1cnn2CC(Cl)c1ccc(Br)cc1 (centres undefined) here
inactive

# fetch the recorded call for Nc1nc(-c2ccccc2)c(N=Nc2ccc(Cl)cc2Cl)s1 here
active

# fetch the recorded call for N#Cc1c(NC(=O)N2CCOCC2)n(-c2ccc(OC(F)(F)F)cc2)c2cc(F)ccc12 here
inactive

# fetch the recorded call for CCN1CCN(Cc2ccc(C(=O)Nc3cccc(Nc4ccc5c(OC)cccc5n4)c3)cc2C(F)(F)F)CC1 here
active

# fetch the recorded call for C/C(=N/O)c1ccc(NC(=O)CSc2nnc(-c3ccc(-c4nc5ccc(Cl)cc5[nH]4)cc3)o2)cc1 here
inactive

* * *

# Test system: K-562 leukemia
# testSummary: NCI-60 one-dose screen, 48 h (100 = growth as untreated, 0 = no growth, -100 = all killed)
# conditionInfo: 10 µM unless noted
Compounds without any hit were thinned out: in the full panel of roughly 83,000, 20% have a hit.
assayReadout: growth (%)
Express the result in % but write the number alone.

Give the measured growth for Cn1cc(-c2cc(N)n3nc(-c4c[nH]c5ccccc45)cc3n2)c2cc(F)ccc21
3.57

Give the measured growth for COc1ccc2c(c1)C(Sc1ccc(Cl)cc1)c1c(nc(N)c(C#N)c1N)O2 (centres undefined)
47.6

Give the measured growth for O=C(NNC(=O)c1ccc(OCc2nc3ccc(Cl)cc3[nH]2)cc1)Nc1ccc(Cl)c(Cl)c1
29.6

Give the measured growth for Cc1cccc(-c2ccccc2Oc2ccc3nnc(Cl)n3n2)c1
103

Give the measured growth for Cn1cc(-c2cc(N)n3nc(-c4c[nH]c5ccc(F)cc45)cc3n2)c2cc(Br)cnc21
-69

Give the measured growth for O=C(c1ccc(Cl)cc1)C1[C@H](c2ccccc2Cl)[C@@H](c2ccccc2)NC12C(=O)Nc1ccc(Cl)cc12 (some centres undefined)
-45.1

Give the measured growth for CCOc1ccc(-c2cc(-c3cc(C(C)C)c(O)cc3C)nn2-c2ccc(S(N)(=O)=O)cc2)cc1
12.4

Give the measured growth for CN1CCN(CCS(=O)(=O)Nc2cc(-c3ccc4ncnc(Nc5ccc(F)c(Cl)c5)c4c3)cnc2Cl)CC1
20.2

Give the measured growth for N#CCc1nnc(NC(=O)c2ccc(-n3c(=O)[nH]c4ccccc4c3=O)cc2)s1
101

Give the measured growth for Cc1ccccc1Nc1nnc(-c2c[nH]c3ccccc23)o1
7.28

Give the measured growth for Nc1nnc(CS(=O)(=O)c2ccccc2)s1
98.9

Give the measured growth for CCCCC[C@@H]1C/C=C(\C)[C@@H](O)C(C)(C)C(=O)[C@@H](C)/C=C(\C)[C@@H]2C[C@H](O)C[C@](O)(CC(=O)O1)O2
13.6

Give the measured growth for N#Cc1cc(-c2ccc3ncnc(N4CCc5cc(F)c(Cl)cc54)c3c2)cnc1N
37.8

Give the measured growth for COc1c(B(O)O)cc(F)cc1-c1nc2c(F)cc3[nH]ncc3c2c2c1CCCC2
38.8

Give the measured growth for O=C(CSc1nnc(-c2ccc(-c3nc4ccccc4[nH]3)cc2)o1)Nc1ccc(Cl)cc1
10.7

Give the measured growth for FC(F)(F)c1cc2c(Cl)ncnc2n1CCC1CCOCC1
-26.3

Give the measured growth for CC(C)(C)c1cc(-c2cc(-c3ccccc3)[nH]c(=O)c2C#N)cc(C(C)(C)C)c1
62.9

Give the measured growth for COc1sc(/C=N/NC(=O)c2[nH]c3ccc(Br)cc3c2-c2ccccc2)cc1Br
7.79

Give the measured growth for N#Cc1ccc(C(=O)NNC(=O)CSc2nc3sc4c(c3c(=O)n2-c2ccc(Cl)cc2)CCCC4)cc1
63.4

* * *

# Tested on: SF-295 CNS
# testSummary: NCI-60 one-dose screen, 48 h (100 = growth as untreated, 0 = no growth, -100 = all killed)
# conditionInfo: 10 µM unless noted
# Experimental: Cells are grown in 96 well plates and exposed to the test compound for 48 hours. Compounds are tested at a single concentration, which is 10^-5 M for most compounds. The reported endpoint is percent growth (GI% or GIPRCNT), where numbers from 0 - 100% represent growth inhibition, and numbers from -100% - 0 represent cell death. For example, a value of 40 represents 60% growth inhibition. A value of 0 means no net growth occurred over the course of the experiment. […]
The panel holds about 83,000 compounds, 20% with a hit somewhere; the sample as a whole holds those more often.
assayReadout: growth (%)
Express the result in % but write the number alone.

Give the measured growth for CN(C)c1ccc(/C=C/c2n(Cc3ccc4ccccc4c3)c3ccccc3[n+]2Cc2ccc3ccccc3c2)cc1
-98.9

Give the measured growth for Cc1cc(=O)oc2cc(OCC(O)CNN3C(=O)c4cccc5c(N6CCN(C)CC6)ccc(c45)C3=O)ccc12 (stereo not given)
108

Give the measured growth for O=C1/C(=C/c2cccc3c2OCO3)Cc2c(F)cc(Br)cc21
96

Give the measured growth for C=CCSc1nnc(-c2c(C)nc3sccn23)o1
89.2

Give the measured growth for CCCCCCCOc1ccc(S(=O)(=O)Nc2ccc(C)c(F)c2C(=O)O)cc1
89.3

* * *

# Tested on: OVCAR-3 ovarian
# testSummary: NCI-60 one-dose screen, 48 h (100 = growth as untreated, 0 = no growth, -100 = all killed)
# conditionInfo: 10 µM unless noted
This is part of a sample that, as a whole, favours compounds with a hit. Of some 83,000 tested, about 20% had one in any assay.
assayReadout: growth (%)
Express the result in % but write the number alone.

Give the measured growth for CN(C)c1nc(NCCNS(=O)(=O)c2ccc(C3=Nc4c(N)nc(N)nc4NC(c4ccc(C(F)(F)F)cc4)C3)cc2)nc(N2CCOCC2)n1 (centres undefined)
58.2

Give the measured growth for CS(=O)(=O)Nc1cncc(-c2ccc3ncnc(NCc4ccccc4)c3c2)c1
33.6

Give the measured growth for COc1cncc(-c2ccc3ncnc(N4CCc5ccc(Cl)cc54)c3c2)c1
55.4

Give the measured growth for COc1ccc(S(=O)(=O)Nc2ccc(-c3ccc4c(c3)NC(=O)/C4=C\c3ccc[nH]3)cc2)cc1OC
57.2

Give the measured growth for Cc1ccc(C(=O)Nc2cc(-c3ccncc3)cc(C(F)(F)F)c2)cc1C#Cc1cnc2cccnn12
95.6

Give the measured growth for COc1cc(/C=C/C(=O)c2cnn(-c3cc(=O)[nH]c4ccc(Cl)cc34)c2C)cc(OC)c1OC
-61.7

Give the measured growth for CCCCCCCCc1ccc(C(=O)Nc2ccc(C)c(OP(=O)(O)O)c2)cc1
96.2

Give the measured growth for O=C1/C(=C/C=C/c2ccco2)SC(=S)N1CC(=S)C1C=CS(=O)(=O)C1 (centres undefined)
65.9

Give the measured growth for CN(C)C(=O)c1cc(-c2ccc3ncnc(N4CCc5cc(F)c(Cl)cc54)c3c2)cnc1N
-58.1
